B1: ETS2 (parent)
chain: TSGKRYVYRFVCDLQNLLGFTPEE

Variants of: B1
Assay: protein stability index of a GFP-peptide fusion (GPS, HEK-293T) (PSI 1-6); higher = more stable;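 also: lentivirally expressed fusions sorted by FACS into six bins by GFP to DsRed ratio, PSI derived from sequencing read proportions per bin multiplied by bin number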
Conditions: c terminus: a fixed tail appended
Rule: satisfied for protein stability index not less than 2, not satisfied for anything less.

Previously resolved entries follow.
T21P    satisfied
E24P    satisfied
T21V    not satisfied

[Q] Tell me whether protein stability index is at least 2 here: F20Y
[A] satisfied
